Test system: rodent lifetime carcinogenesis bioassay, tumor incidence TD50
assay.notes: carcinogenic potency in animals, long-term in vivo studies, CPDB compilation (AID 1745844)
condition.summary: rat; strain F344/DuCrj; females; in drinking water; site: upper gastrointestinal tract; lesion: several types; types named in the paper; dosed 97 weeks; study length 112 weeks

| smiles.repr | TD50 |
| --- | --- |
| CCOC(=O)N(CC)N=O | 0.0553 mg/kg/day |

---

System: rodent lifetime carcinogenesis bioassay, tumor incidence TD50
assay.notes: carcinogenic potency in animals, long-term in vivo studies, CPDB compilation (AID 1745844)
condition.summary: mouse; strain B6C3F1; males; oral dosing; site: liver; lesion: hepatoma; dosed 78 weeks; study length 78 weeks
observed.property: TD50

| smiles.repr | observed |
| --- | --- |
| NNCCO | 0.541 mg/kg/day |
